- Test system: SF-295
- assay.procedure: NCI tumour cell line growth inhibition, 48 h
Calls of active or inactive are those of the source. Cut-off read from the data, not from the text of the source: active = GI50 up to about 1.1 µM and inactive = higher.
Pick one and only one: label 1 (active), label 0 (inactive)

                                   compound  target_system    label
0     O=C1C(Cl)=C(NCCO)C(=O)c2c(O)ccc(O)c21         SF-295  label 0
1  N=C(CSS(=O)(=O)O)NC1CC2CCC1C2 (configuration not stated)         SF-295  label 0
2       CCOC(=O)Nc1nc2cc(Cn3cccc3)ccc2[nH]1         SF-295  label 1

Qu. Which outcome was entered for the compound CN(Cc1ccccc1)Cn1ccnc1 in this test?
Ans. label 0

Qu. Which outcome was entered for the compound CN1CCc2c(sc3ncn(C)c(=N)c23)C1 in this test?
Ans. label 0

Qu. Which outcome was entered for the compound C[C@H](NC(=O)n1c2ccccc2c2ccccc21)C(=O)O in this test?
Ans. label 0

Qu. Which outcome was entered for the compound CC(=O)C1C(c2ccc(N(C)C)cc2)c2cc3c(cc2OC1(C)O)OCO3 (configuration not stated) in this test?
Ans. label 0

Qu. Which outcome was entered for the compound O=C(Nc1ccc(Cl)cc1Cl)OC(Cn1cncn1)c1ccc(Cl)cc1Cl (configuration not stated) in this test?
Ans. label 0

###

- Test system: HL-60
- assay.procedure: NCI tumour cell line growth inhibition, 48 h
Active and inactive are the calls of the source. Rule as the data show it: active = GI50 up to about 1.1 µM and inactive = higher.
Pick one and only one: active, inactive

>>> df
                                   compound     label
0  COC(=O)c1c(C)cccc1C1CN=NC12Cc1cc(C)cc(C)c1C2=O (centres undefined)  inactive
1                 CC(C)(C)N1CC2(CCCCC2)C1=O  inactive
2  CC1CC(c2cccc3c2OCO3)=Nc2ccccc2S1 (centres undefined)  inactive
3                           CN(C)CCCN=C(N)N  inactive
4        Oc1ccc(/C=C/c2ccc3cccc(O)c3n2)cc1O  inactive

Here is another compound to look at.
Qu. Which outcome was entered for the compound c1ccc(/C(=N\Nc2nc3ccccc3s2)c2ccccn2)cc1 in this test?
Ans. active

###

- Tested on: HCT-116
- assay.procedure: NCI tumour cell line growth inhibition, 48 h
Activity calls are given as the source filed them. Rule as the data show it: active = GI50 up to about 1.1 µM and inactive = higher.
Pick one and only one: active, inactive

Answered cases to consult:
In [3]: df
Out[3]:
                                   compound     label
0  CC1C2CCC3C(O)C2(CC(O)C2(O)C1CC(O)C2(C)C)CC3(C)O (centres undefined)  inactive
1        c1ccc2c(c1)ccn1ccc3c4ccccc4nc-3c21    active
2  Cc1cc(Cc2cc(C)cc(C(C)(C)C)c2O)c(O)c(Cc2cc(C)cc(C(C)(C)C)c2O)c1  inactive

Here is another compound to look at.
Qu. Which outcome was entered for the compound COc1ccc2nc3cc(Cl)ccc3c(NCCCNCCCNc3c4ccc(Cl)cc4nc4ccc(OC)cc34)c2c1 in this test?
Ans. active

###

- Test system: MOLT-4
- assay.procedure: NCI tumour cell line growth inhibition, 48 h
Calls of active or inactive are those of the source. Cut-off read from the data, not from the text of the source: active = GI50 up to about 1.1 µM and inactive = higher.
Pick one and only one: active, inactive

Answered cases to consult:
                                   molecule     label
0       c1ccc(C2(c3cc4ccccc4[nH]3)OCCO2)cc1  inactive
1  NS(=O)(=O)c1ccc(NC(=O)c2cc([N+](=O)[O-])cc([N+](=O)[O-])c2)cc1  inactive
2              CC(=O)N(C)CCc1c[nH]c2ccccc12  inactive

Qu. Which outcome was entered for the molecule Cc1ccc(/N=N/c2c(C)c(C#N)c(=S)n(C3OC(CO)C(O)C(O)C3O)c2C)cc1 (centres undefined) in this test?
Ans. inactive

Qu. Which outcome was entered for the molecule CN(Cc1ccccc1)Cn1ccnc1 in this test?
Ans. inactive

Qu. Which outcome was entered for the molecule Cc1ccc2c3ccc4c(c3n(C)c2c1)C(=O)C=CC4=O in this test?
Ans. active

Qu. Which outcome was entered for the molecule C[N+](C)(C)[BH-](Br)C(O)O (centres undefined) in this test?
Ans. inactive

Qu. Which outcome was entered for the molecule O=C(OCc1ccc([N+](=O)[O-])cc1)N1c2ccccc2[C@@]23O[C@]24CCC[C@H]3C#C/C=C\C#C[C@H]14 in this test?
Ans. inactive
